test system: MS2 coat protein; assay: apparent KD of MS2 coat protein; designed switch direction (-1 OFF switch, 1 ON switch): -1; higher = weaker reporter binding; conditions: Eterna round: R95; input ligand: FMN 200 uM
Measured apparent KD of MS2 coat protein values are reported for all entries that follow.
Numeric only. Scale: nM

Some entries whose results are on file:
{"Biosequence": "GCGAAAGCAAGCAAGUGAAACAUGAGGAUCACCCAUGUCCUCGUUUGCUCGUCUUAUAAGCUAUGCGAAAGCAUAGC [Sensor 3, v1 - 4] (puzzle: Sensor v3, turn-off variant 1)", "Unit string": "nM", "apparent KD of MS2 coat protein": 12.9}
{"Biosequence": "CAAAAGCUAGGAUAUCGUAAACAAGACAUGAGGAUCACCCAUGUGUCCGUGGCUGACCUCCGAGAAGGAGCAAUAU [Bilate] (puzzle: Exclusion 5)", "Unit string": "nM", "apparent KD of MS2 coat protein": 23.6}
{"Biosequence": "CGUGACUGAGGAUAUCUAUAUUAUCACAUGAGGAUCACCCAUGUCCAGCGAAAGCUGGAGGGAGAAGGCAGUCACG [Fiskers Ex 5 - 28] (puzzle: Exclusion 5)", "Unit string": "nM", "apparent KD of MS2 coat protein": 17.1}
{"Biosequence": "GCCCAGCUAGGAUAUCGCACUGCAGACAUGAGGAUCACCCAUGUGAUGAGGUCUGAAUUCCGAGAAGGAGCAUGGA [Isedzaqu] (puzzle: Exclusion 5)", "Unit string": "nM", "apparent KD of MS2 coat protein": 66.6}

Q: Annotate the sequence AGAAAGCAAGGAUAUACAAGUAAACGACGGAAAGUAGAGAGACAUGAGGAUCACCCAUGUAGAAGGUGCGAGAG [JR_Exclu2_Sub034] (puzzle: Exclusion 2) with its measured apparent KD of MS2 coat protein.
A: 24.7

Q: Annotate the sequence UUUUAGAGAGGAUAUAUAAUGUGAAACAUGAGGAUCACCCAUGUAAUAUUAUGGAUGUAAAUAGAAGGCUCAAUUA [Mat - Exclusion 5 - JL mod - D13] (puzzle: Exclusion 5) with its measured apparent KD of MS2 coat protein.
A: 28.5

All values here come from the supplement of paper PMC9170038.
